Every entry's value here was drawn from paper PMC12864922.

testedOn: TDP-43 (Homo sapiens, UniProt Q13148 1-414)
Sequence (Q13148 whole entry): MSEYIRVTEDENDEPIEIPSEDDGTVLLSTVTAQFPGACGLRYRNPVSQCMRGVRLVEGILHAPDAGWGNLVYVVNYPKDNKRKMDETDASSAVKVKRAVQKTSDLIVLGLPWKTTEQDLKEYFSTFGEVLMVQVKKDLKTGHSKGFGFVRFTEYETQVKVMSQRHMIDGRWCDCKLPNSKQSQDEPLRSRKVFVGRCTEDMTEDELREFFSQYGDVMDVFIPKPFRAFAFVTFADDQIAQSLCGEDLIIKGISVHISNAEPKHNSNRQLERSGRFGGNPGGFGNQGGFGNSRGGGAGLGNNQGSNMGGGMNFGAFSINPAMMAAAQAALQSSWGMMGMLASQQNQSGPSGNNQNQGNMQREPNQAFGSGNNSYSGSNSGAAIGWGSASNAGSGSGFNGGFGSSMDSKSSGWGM
testDescription: RNA Bind-n-Seq with designed 260-mer pool; 25 mM Tris-HCl, 150 mM KCl, 3 mM MgCl2, BSA (printed 500 mg/mL), 20 units/mL SUPERase IN; pH not stated; 500 nM RNA pool, 1 h, 4 C; TDP-43 5, 50, 500 nM; high values mean tight binding
testParameters: protein: recombinant; tags: SBP (GST cleaved off with PreScission; pGEX-GST-SBP)
The full ranking holds about 9,900 sequences; the median of “r (bound/input frequency ratio)” is about 0.7, and the highest 2% start at about 6.5. The full list was thinned out, with the highest values kept by preference.
binding signal for assorted binders

Previously resolved entries follow.
binder: ENSMUSG00000061578.1472|Ksr2|6:10 (ssRNA) RNA: GGGAGUUCUACAGUCCGACGAUCGCUUCGAUAUCCGCAUGCUAGAUAGCAUACUGAAUAAAUGGAUGGAUGGAUGGAUUGAUUUGUGAAUGAAUGGAUGAAUGGAUGGGUAGGUGGGUGGAUGCAUAGGCAAGUAGAUGAAUGAAUAUGUGGGUAGAAGGGUGAGUGGGUGGAUGAAUGGAUGGAUAGGUUGGUAGGUUAAUGUAUUCGUGGAUGGGUGAAUGGAUGGAUGGAUAGAUAGAUGGGAAGGUGGAUGGACAGAUGGAUGGAUGGAUAGAUAGAUGGACAGGUGGUUGGUGGAUAACUCUUGCGGUCGCACUAGUGUGGAAUUCUCGGGUGUCAAGG
binding signal: 5.45 R (bound/input frequency ratio)
//
binder: ENSMUSG00000061578.1467|Ksr2|36:40 (ssRNA) RNA: GGGAGUUCUACAGUCCGACGAUCGCUUCGAUAUCCGCAUGCUAUGAAUGGAUGAAUGGAUGGGUGAAUGGAUGGAUAGCAUACUGAAUAAAUGGAUGGAUGGAUGGAUUGAUUUGUGAAUGAAUGGAUGAAUGGAUGGGUAGGUGGGUGGAUGCAUAGGCAAGUAGAUGAAUGAAUAUGUGGGUAGAAGGGUGAGUGGGUGGAUGAAUGGAUGGAUAGGUUGGUAGGUUAAUGUAUUCGUGGAUGGGUGAAUGGAUGGAUGGAUAGAUAGAUGGGAAGGUGGAUGGACAGAUGGAUGGAUGGACUCUUGCGGUCGCACUAGUGUGGAAUUCUCGGGUGUCAAGG
binding signal: 6.51 R (bound/input frequency ratio)
//
binder: ENSMUSG00000061578.1465|Ksr2|48:52 (ssRNA) RNA: GGGAGUUCUACAGUCCGACGAUCGCUUCGAUAUCCGCAUGCUAUAGGUAUAUGAAUGAAUGGAUGAAUGGAUGGGUGAAUGGAUGGAUAGCAUACUGAAUAAAUGGAUGGAUGGAUGGAUUGAUUUGUGAAUGAAUGGAUGAAUGGAUGGGUAGGUGGGUGGAUGCAUAGGCAAGUAGAUGAAUGAAUAUGUGGGUAGAAGGGUGAGUGGGUGGAUGAAUGGAUGGAUAGGUUGGUAGGUUAAUGUAUUCGUGGAUGGGUGAAUGGAUGGAUGGAUAGAUAGAUGGGAAGGUGGAUGGACAGACUCUUGCGGUCGCACUAGUGUGGAAUUCUCGGGUGUCAAGG
binding signal: 5.93 R (bound/input frequency ratio)
//
binder: ENSMUSG00000058297.22|Spock2|119:123;127:140;149:160;174:180;189:198;204:229 (ssRNA) RNA: GGGAGUUCUACAGUCCGACGAUCGCUUCGAUAUCCGCAUGCUAAGGGUGCCGACGGCCAGAAAGACAGGCCAGAAGAGACCUGGACAACAGCAGGCAACUUAGCAAAUGGAUCCGGAAGUCAGUGCGGAGGACCCUGGCUCCAGUGGGGGAGGACUGGGGACACACGCUACACACAUACACACAUAUGAGAACACACACAUACAUGUGAGAUGUGACACACACAUGUGAGAACACACAUACUGAGAACACACACACACACACACACACACACAUGUGAGUCACCCAAAGGUCCCUAUGUUAUUCUCUUGCGGUCGCACUAGUGUGGAAUUCUCGGGUGUCAAGG
binding signal: 2.11 R (bound/input frequency ratio)
//
binder: ENSMUSG00000058297.23|Spock2|113:117;121:134;143:154;168:174;183:192;198:223 (ssRNA) RNA: GGGAGUUCUACAGUCCGACGAUCGCUUCGAUAUCCGCAUGCUACCGACGGCCAGAAAGACAGGCCAGAAGAGACCUGGACAACAGCAGGCAACUUAGCAAAUGGAUCCGGAAGUCAGUGCGGAGGACCCUGGCUCCAGUGGGGGAGGACUGGGGACACACGCUACACACAUACACACAUAUGAGAACACACACAUACAUGUGAGAUGUGACACACACAUGUGAGAACACACAUACUGAGAACACACACACACACACACACACACACAUGUGAGUCACCCAAAGGUCCCUAUGUUAUUGAUUUUCUCUUGCGGUCGCACUAGUGUGGAAUUCUCGGGUGUCAAGG
binding signal: 4.42 R (bound/input frequency ratio)
//
binder: ENSMUSG00000061578.1468|Ksr2|30:34 (ssRNA) RNA: GGGAGUUCUACAGUCCGACGAUCGCUUCGAUAUCCGCAUGCUAGAUGAAUGGAUGGGUGAAUGGAUGGAUAGCAUACUGAAUAAAUGGAUGGAUGGAUGGAUUGAUUUGUGAAUGAAUGGAUGAAUGGAUGGGUAGGUGGGUGGAUGCAUAGGCAAGUAGAUGAAUGAAUAUGUGGGUAGAAGGGUGAGUGGGUGGAUGAAUGGAUGGAUAGGUUGGUAGGUUAAUGUAUUCGUGGAUGGGUGAAUGGAUGGAUGGAUAGAUAGAUGGGAAGGUGGAUGGACAGAUGGAUGGAUGGAUAGAUACUCUUGCGGUCGCACUAGUGUGGAAUUCUCGGGUGUCAAGG
binding signal: 8.93 R (bound/input frequency ratio)

Here is another binder to look at.
Please look up its binding signal: ENSMUSG00000061578.1466|Ksr2|42:46 (ssRNA) RNA: GGGAGUUCUACAGUCCGACGAUCGCUUCGAUAUCCGCAUGCUAUAUGAAUGAAUGGAUGAAUGGAUGGGUGAAUGGAUGGAUAGCAUACUGAAUAAAUGGAUGGAUGGAUGGAUUGAUUUGUGAAUGAAUGGAUGAAUGGAUGGGUAGGUGGGUGGAUGCAUAGGCAAGUAGAUGAAUGAAUAUGUGGGUAGAAGGGUGAGUGGGUGGAUGAAUGGAUGGAUAGGUUGGUAGGUUAAUGUAUUCGUGGAUGGGUGAAUGGAUGGAUGGAUAGAUAGAUGGGAAGGUGGAUGGACAGAUGGAUGCUCUUGCGGUCGCACUAGUGUGGAAUUCUCGGGUGUCAAGG 6.95 R (bound/input frequency ratio)
